Test: Growth inhibition of human HEK293 cells after 6 days by MTS assay
Assay type: cell-based
Value kind: GI50 at 144 h (nM)

CN(C)CCCNC(=O)CCNC(=O)c1cc(NC(=O)c2cc(NC(=O)c3cc(NC(=O)c4cc(NC(=O)[C@@H](CCNC(=O)CCCc5ccc(N(CCCl)CCCl)cc5)NC(=O)c5nc(NC(=O)CCNC(=O)c6nc(NC(=O)c7nccn7C)cn6C)cn5C)cn4C)cn3C)cn2C)cn1C 400
